# Test system: SK-MEL-28 melanoma
# Assay explanation: NCI tumour cell line growth inhibition, 48 h
Reported TGI by item:

- Compound: "NNC(=O)c1cnn(-c2ccnc3c(C(F)(F)F)cccc23)c1N"
  Target system: "SK-MEL-28 melanoma"
  TGI: "> 100 µM"
- Compound: "CC(=O)Nc1ccc(Cl)c(Cl)c1"
  Target system: "SK-MEL-28 melanoma"
  TGI: "> 100 µM"
- Compound: "COc1cc2c(c(OC)c1OC)-c1ccc(NCc3ccccc3)c(=O)cc1[C@@H](NC(C)=O)CC2"
  Target system: "SK-MEL-28 melanoma"
  TGI: "31.5 µM"
- Compound: "Cc1cc(C)nc(NS(=O)(=O)c2ccc(NC(=O)c3cccc4c(=O)c5ccccc5[nH]c34)cc2)n1"
  Target system: "SK-MEL-28 melanoma"
  TGI: "36 µM"
- Compound: "Cc1cccc(C(C)(C)C)c1NC(=O)C(=O)Cc1nc2ccccc2s1"
  Target system: "SK-MEL-28 melanoma"
  TGI: "> 100 µM"
- Compound: "COc1ccc(N=Cc2cc(OC)c(OC)c(OC)c2)cc1"
  Target system: "SK-MEL-28 melanoma"
  TGI: "> 100 µM"
- Compound: "O=[N+]([O-])c1ccc(NSc2ccccc2)cc1"
  Target system: "SK-MEL-28 melanoma"
  TGI: "> 100 µM"
- Compound: "COc1cc2c(cc1OC)C(=O)/C(=C/c1cc(C)c(O)c(C)c1)C2"
  Target system: "SK-MEL-28 melanoma"
  TGI: "> 100 µM"
- Compound: "CCOP(=O)(OCC)/C(F)=C/c1ccccc1"
  Target system: "SK-MEL-28 melanoma"
  TGI: "> 100 µM"
- Compound: "O=C1CSC(N2CCN(c3cccc(Cl)c3)CC2)=N1"
  Target system: "SK-MEL-28 melanoma"
  TGI: "> 100 µM"
- Compound: "O=C(OCc1ccccc1)OOC(=O)OCc1ccccc1"
  Target system: "SK-MEL-28 melanoma"
  TGI: "> 100 µM"
- Compound: "OCCNCO"
  Target system: "SK-MEL-28 melanoma"
  TGI: "> 100 µM"
- Compound: "CCC1CCC2CCCC(C)N12 (stereo not drawn)"
  Target system: "SK-MEL-28 melanoma"
  TGI: "> 100 µM"
- Compound: "CCOC(=O)c1c(N)n(-c2ccccc2)c(=S)n(-c2ccccc2)c1=O"
  Target system: "SK-MEL-28 melanoma"
  TGI: "> 100 µM"
- Compound: "CSc1c(C(=O)Nc2ccc(C)cc2)c(N)[nH]c(=O)c1C#N"
  Target system: "SK-MEL-28 melanoma"
  TGI: "> 100 µM"
- Compound: "O=C1Oc2cc3c(c4cccc1c24)OCN(c1ccc(Cl)cc1)C3"
  Target system: "SK-MEL-28 melanoma"
  TGI: "> 93.6 µM"
- Compound: "CCN(CCCN(CC)C(=O)N[C@@H](Cc1ccccc1)C(=O)NC)C(=O)N[C@@H](Cc1ccccc1)C(=O)NC"
  Target system: "SK-MEL-28 melanoma"
  TGI: "> 100 µM"
- Compound: "COC(=O)CCCC(=O)C(=Nc1c(Cl)cccc1Cl)NNc1ccc(Cl)cc1"
  Target system: "SK-MEL-28 melanoma"
  TGI: "> 100 µM"
- Compound: "O=C(O[C@H](/C=C/c1ccccc1)P1(=O)N(Cc2ccccc2)[C@@H]2CCCC[C@H]2N1Cc1ccccc1)c1ccccc1"
  Target system: "SK-MEL-28 melanoma"
  TGI: "> 100 µM"
- Compound: "CN1CN(c2ccccc2)C2(CCN(CCCC3(c4cccs4)OCCO3)CC2)C1=O"
  Target system: "SK-MEL-28 melanoma"
  TGI: "> 100 µM"
- Compound: "CN1CCCNCCN(CCc2ccccn2)CCCN(C)CC1"
  Target system: "SK-MEL-28 melanoma"
  TGI: "> 100 µM"
- Compound: "CN1CCN(C(=S)N(C)C(=O)c2ccc(Cl)cc2)CC1"
  Target system: "SK-MEL-28 melanoma"
  TGI: "> 100 µM"
- Compound: "CCOC(=O)C1CC(O)C(=O)N1C (stereo not drawn)"
  Target system: "SK-MEL-28 melanoma"
  TGI: "> 100 µM"
